B1: CDC25A (parent)
chain: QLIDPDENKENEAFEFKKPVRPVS

Variants of: B1
Test: protein stability index of a GFP-peptide fusion (GPS, HEK-293T) (PSI 1-6); higher = more stable;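 also: lentivirally expressed fusions sorted by FACS into six bins by GFP to DsRed ratio, PSI derived from sequencing read proportions per bin multiplied by bin number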
Settings: c terminus: a fixed tail appended
Would you kindly list protein stability index for each of these variants?
Give bare numbers.

E12A :: 3.34
R21G :: 4.97
D4T :: 3.65

Hey, quick one: what's protein stability index for each of these?
1. D6Y
2. Q1F
3. R21N
4. E7L
5. E7H
6. I3Q

Result:
4.02
4.05
5
3.33
3.94
3.95

Hey, quick one: what's protein stability index for each of these?
1. F16R
2. K17G
3. K17T
4. E10W
5. K18L
6. K18P
7. E12R
8. D4R

Result:
1. 4.53
2. 3.91
3. 3.58
4. 4.02
5. 4.39
6. 4.29
7. 3.1
8. 3.3

Just for reference, the supplement of paper PMC10567573 is where these values come from.
